B1: glmS ribozyme (parent)
chain: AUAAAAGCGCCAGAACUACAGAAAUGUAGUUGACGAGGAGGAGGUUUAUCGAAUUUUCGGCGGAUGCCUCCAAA

variants of: B1; assay: self-cleavage kobs at 40 uM GlcN6P; higher = faster cleavage; RNA array; conditions: with glucosamine-6-phosphate
This sample holds only a part of the variants without activity.
property_measured: self-cleavage kobs at 40 uM GlcN6P

1) C34A G37U: < 1e-05 s⁻¹
2) A53G C70G: 0.000132 s⁻¹
3) A14U G29U G44U U56A: < 1e-05 s⁻¹
4) C10A G29C U56C A64G: < 1e-05 s⁻¹
5) G35C U56G C58A U69A: < 1e-05 s⁻¹
6) C11U G43C: < 1e-05 s⁻¹
7) C8G C71A: < 1e-05 s⁻¹
8) A39C G59A: < 1e-05 s⁻¹
9) A52C C71U: < 1e-05 s⁻¹
10) C16G G38C: < 1e-05 s⁻¹
11) C10U A15C G43U C50U U57G G59A: < 1e-05 s⁻¹
12) C10U G44A: < 1e-05 s⁻¹
13) U45G U65A: 8.89e-05 s⁻¹
14) A14U A39G G44A C50A C71A: < 1e-05 s⁻¹
15) A12C A53U: 0.000376 s⁻¹
16) U65G C71A: 4.51e-05 s⁻¹
17) G35A C70U: < 1e-05 s⁻¹
18) G7A G32C: < 1e-05 s⁻¹
19) G37C C68A: < 1e-05 s⁻¹
20) G29C U54C: 6.42e-05 s⁻¹
21) G32A A39C G44U: < 1e-05 s⁻¹
22) G38A U49C: < 1e-05 s⁻¹
23) G29U U47A: 9.83e-05 s⁻¹
24) U30C G35A C50G C61U A64G: 0.000165 s⁻¹
25) A12C C71U: 0.000587 s⁻¹
26) C10A G32C: < 1e-05 s⁻¹
27) C16A U31A G32U G40C G41A C67U C68U: < 1e-05 s⁻¹
28) G38C C58U: < 1e-05 s⁻¹
29) G44U U56A: < 1e-05 s⁻¹
30) G9A G62U: < 1e-05 s⁻¹
31) U30C A33C: < 1e-05 s⁻¹
32) C16U G38C A48G C50U U55G: < 1e-05 s⁻¹
